Test system: OVCAR-3
Experiment: NCI-60 screen (SRB), ovarian cancer
Conditions: Homo sapiens, OVCAR-3
PROPERTY MEASURED: IC50 (µM)
Write the value in µM as a bare number.

COc1cc(OC)c(S(=O)(=O)N(CCCl)CCCl)cc1C(=O)/C=C/c1cc(OC)c(OC)c(OC)c1 [Compound 18e] yielded IC50 of 6.62

COc1cc(OC)c(S(N)(=O)=O)cc1C(=O)/C=C/c1ccc(Cl)cc1 [Compound 17b] yielded IC50 of 3.51

COc1cc(OC)c(S(N)(=O)=O)cc1C(=O)/C=C/c1ccc(C)cc1 [Compound 17c] yielded IC50 of 3.05

COc1cc(OC)c(S(N)(=O)=O)cc1C(=O)C=Cc1ccccc1 [Compound 17a] yielded IC50 of 2.71

----------
System: M. tuberculosis H37Rv
Assay: Checkerboard synergism assay
Format: cell-based, Mycobacterium tuberculosis
Conditions: antibiotic in combination with 20a
Exercise: state measured MIC Combination for each of the compounds provided.
Write the value in µg/mL as a bare number.

NNC(=O)c1ccncc1 [Isoniazid, isoniazid, reference compound] yielded MIC Combination of 0.006

NCC[C@H](O)C(=O)N[C@@H]1C[C@H](N)[C@@H](O[C@H]2O[C@H](CN)[C@@H](O)[C@H](O)[C@H]2O)[C@H](O)[C@H]1O[C@H]1O[C@H](CO)[C@@H](O)[C@H](N)[C@H]1O [AMK, amikacin, reference compound] yielded MIC Combination of 1.5

C[C@H]1COc2c(N3CCN(C)CC3)c(F)cc3c(=O)c(C(=O)O)cn1c23 [Levofloxacin, levofloxacin, reference compound] yielded MIC Combination of 0.5

CO[C@H]1/C=C/O[C@@]2(C)Oc3c(C)c(O)c4c(O)c(c(/C=N/N5CCN(C)CC5)c(O)c4c3C2=O)NC(=O)/C(C)=C\C=C\[C@H](C)[C@H](O)[C@@H](C)[C@@H](O)[C@@H](C)[C@H](OC(C)=O)[C@@H]1C [RIF, rifampicin, reference compound] yielded MIC Combination of 0.048

----------
Test: Cytotoxicity on Vero cell line (MTT)
Assay type: cell-based, African green monkey
Conditions: African green monkey, Vero cells (African green monkey kidney, ATCC CCL-81); MTT, 24 h
PROPERTY MEASURED: IC50 at 24 h (nM)
Write the value in nM as a bare number.

COc1cc(OC)c(S(=O)(=O)NNC(=O)c2ccncc2)cc1C(=O)C=Cc1ccccc1 [Compound 20a] yielded IC50 at 24 h of 6050

COc1ccc(/C=C/C(=O)c2cc(S(=O)(=O)NNC(=O)c3ccncc3)c(OC)cc2OC)cc1 [Compound 20d] yielded IC50 at 24 h of 1000

COc1ccc(/C=C/C(=O)c2ccc(OC)c(S(=O)(=O)NNC(=O)c3ccncc3)c2)cc1 [Compound 19d] yielded IC50 at 24 h of 2190

COc1cc(OC)c(S(=O)(=O)NNC(=O)c2ccncc2)cc1C(=O)/C=C/c1cc(OC)c(OC)c(OC)c1 [Compound 20e] yielded IC50 at 24 h of 260

COc1ccc(C(=O)C=Cc2ccccc2)cc1S(=O)(=O)NNC(=O)c1ccncc1 [Compound 19a] yielded IC50 at 24 h of 6320

COc1cc(OC)c(S(N)(=O)=O)cc1C(=O)C=Cc1ccccc1 [Compound 17a] yielded IC50 at 24 h of 1060

COc1cc(OC)c(S(=O)(=O)NNC(=O)c2ccncc2)cc1C(=O)/C=C/c1ccc2c(c1)OCO2 [Compound 20f] yielded IC50 at 24 h of 2550

COc1cc(OC)c(S(N)(=O)=O)cc1C(=O)/C=C/c1ccc2c(c1)OCO2 [Compound 17f] yielded IC50 at 24 h of 1700

----------
System: KM12
Assay: NCI-60 screen (SRB), colon cancer
Conditions: Homo sapiens, KM12
Exercise: state measured pIC50 for each of the molecules provided.
Just so you know, pIC50 here is -log10 of the concentration in molar units; reply with that number alone.

COc1cc(OC)c(S(N)(=O)=O)cc1C(=O)/C=C/c1ccc(C)cc1 [Compound 17c] yielded pIC50 of 5.50

COc1cc(OC)c(S(N)(=O)=O)cc1C(=O)C=Cc1ccccc1 [Compound 17a] yielded pIC50 of 5.48

COc1cc(OC)c(S(N)(=O)=O)cc1C(=O)/C=C/c1ccc(Cl)cc1 [Compound 17b] yielded pIC50 of 5.74

COc1cc(OC)c(S(=O)(=O)N(CCCl)CCCl)cc1C(=O)/C=C/c1cc(OC)c(OC)c(OC)c1 [Compound 18e] yielded pIC50 of 5.37

----------
System: MDA-MB-435
Assay: NCI-60 screen (SRB), melanoma
Settings: Homo sapiens, MDA-MB-435
Exercise: state measured pIC50 for each of the compounds provided.
Just so you know, pIC50 here is -log10 of the concentration in molar units; reply with that number alone.

Considering COc1cc(OC)c(S(=O)(=O)N(CCCl)CCCl)cc1C(=O)/C=C/c1cc(OC)c(OC)c(OC)c1 [Compound 18e] , its pIC50 with MDA-MB-435 was recorded as 5.12

Considering COc1cc(OC)c(S(N)(=O)=O)cc1C(=O)/C=C/c1ccc(C)cc1 [Compound 17c] , its pIC50 with MDA-MB-435 was recorded as 5.64

Considering COc1cc(OC)c(S(N)(=O)=O)cc1C(=O)/C=C/c1ccc(Cl)cc1 [Compound 17b] , its pIC50 with MDA-MB-435 was recorded as 5.68

Considering COc1cc(OC)c(S(N)(=O)=O)cc1C(=O)C=Cc1ccccc1 [Compound 17a] , its pIC50 with MDA-MB-435 was recorded as 5.67

----------
Tested on: SNB-75
Experiment: NCI-60 screen (SRB), CNS cancer
Settings: Homo sapiens, SNB-75, read-out: LC50
PROPERTY MEASURED: CC50 (µM)
Write the value in µM as a bare number.

COc1cc(OC)c(S(N)(=O)=O)cc1C(=O)C=Cc1ccccc1 [Compound 17a] yielded CC50 of 26.9

COc1cc(OC)c(S(N)(=O)=O)cc1C(=O)/C=C/c1ccc(Cl)cc1 [Compound 17b] yielded CC50 of 6.95

COc1cc(OC)c(S(N)(=O)=O)cc1C(=O)/C=C/c1ccc(C)cc1 [Compound 17c] yielded CC50 of 18.2

----------
System: SF-295
Assay: NCI-60 screen (SRB), CNS cancer
Conditions: Homo sapiens, SF-295, read-out: LC50
PROPERTY MEASURED: CC50 (µM)
Write the value in µM as a bare number.

COc1cc(OC)c(S(N)(=O)=O)cc1C(=O)/C=C/c1ccc(Cl)cc1 [Compound 17b] yielded CC50 of 57.6

COc1cc(OC)c(S(N)(=O)=O)cc1C(=O)C=Cc1ccccc1 [Compound 17a] yielded CC50 of 58.2

COc1cc(OC)c(S(N)(=O)=O)cc1C(=O)/C=C/c1ccc(C)cc1 [Compound 17c] yielded CC50 of 43.2

----------
System: A549/ATCC
Assay: NCI-60 screen (SRB), non-small cell lung cancer
Details: Homo sapiens, A549, read-out: LC50
PROPERTY MEASURED: CC50 (µM)
Write the value in µM as a bare number.

COc1cc(OC)c(S(N)(=O)=O)cc1C(=O)C=Cc1ccccc1 [Compound 17a] yielded CC50 of 49

COc1cc(OC)c(S(N)(=O)=O)cc1C(=O)/C=C/c1ccc(C)cc1 [Compound 17c] yielded CC50 of 34.8

----------
Exercise: state measured melting point for each of the compounds provided.

COc1ccc(C(=O)/C=C/c2ccc3c(c2)OCO3)cc1S(=O)(=O)NNC(=O)c1ccncc1 [Compound 19f] yielded melting point of 245 to 248 °C

COc1cc(OC)c(S(N)(=O)=O)cc1C(=O)/C=C/c1cc(OC)c(OC)c(OC)c1 [Compound 17e] yielded melting point of 253 to 256 °C

COc1cc(OC)c(S(=O)(=O)N(CCCl)CCCl)cc1C(=O)/C=C/c1ccc2c(c1)OCO2 [Compound 18f] yielded melting point of 193 to 196 °C

COc1ccc(C2=NN(C(C)=O)C(c3ccc(Cl)cc3)C2)cc1S(=O)(=O)NNC(=O)c1ccncc1 (centres unmarked) yielded melting point of 146 to 148 °C

COc1ccc(/C=C/C(=O)c2cc(S(=O)(=O)N(CCCl)CCCl)c(OC)cc2OC)cc1 [Compound 18d] yielded melting point of 168 to 171 °C

COc1ccc(C(=O)C=Cc2ccccc2)cc1S(=O)(=O)NNC(=O)c1ccncc1 [Compound 19a] yielded melting point of 227 to 229 °C

COc1cc(OC)c(S(=O)(=O)NNC(=O)c2ccncc2)cc1C(=O)/C=C/c1cc(OC)c(OC)c(OC)c1 [Compound 20e] yielded melting point of 162 to 165 °C

COc1cc(OC)c(S(=O)(=O)N(CCCl)CCCl)cc1C(=O)/C=C/c1ccc(Cl)cc1 [Compound 18b] yielded melting point of 186 to 187 °C
